# target_entity: T1, Human PD-L1 Dimer (human, UniProt Q9NZQ7 19-239)
# T1 construct: also called hPD-L1 dimer; hPD-L1-hFc
# test_details: SPR (Biacore), mAb captured, 37C
Hi there, I'd appreciate the recorded pKd for every entry that follows.
Answers are plain numbers, as −log10 of the molar value.

Consider the following items and state reported pKd for each.
1. H2aM8317N (antibody, mouse IgG2, V domains shown, also called H2M8317N) VH: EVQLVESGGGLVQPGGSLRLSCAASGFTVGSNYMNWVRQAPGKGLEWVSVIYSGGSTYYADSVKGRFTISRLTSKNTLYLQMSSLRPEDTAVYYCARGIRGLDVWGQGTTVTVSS VL: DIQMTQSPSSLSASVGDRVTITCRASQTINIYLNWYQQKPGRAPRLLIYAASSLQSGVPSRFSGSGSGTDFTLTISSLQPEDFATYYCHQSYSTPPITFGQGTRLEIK
2. H2aM8310N (antibody, mouse IgG2, V domains shown, also called H2M8310N) VH: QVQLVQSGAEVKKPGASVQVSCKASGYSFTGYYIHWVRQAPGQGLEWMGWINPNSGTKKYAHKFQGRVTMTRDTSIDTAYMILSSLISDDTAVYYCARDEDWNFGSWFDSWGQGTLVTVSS VL: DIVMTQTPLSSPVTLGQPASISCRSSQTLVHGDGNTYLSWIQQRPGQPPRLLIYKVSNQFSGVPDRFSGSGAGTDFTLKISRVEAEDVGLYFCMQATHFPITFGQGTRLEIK
3. H1H9336P (antibody, human IgG1, V domains shown) VH: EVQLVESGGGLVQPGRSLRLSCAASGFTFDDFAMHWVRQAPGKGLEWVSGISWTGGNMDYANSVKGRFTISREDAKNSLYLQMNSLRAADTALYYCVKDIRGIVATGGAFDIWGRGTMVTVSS VL: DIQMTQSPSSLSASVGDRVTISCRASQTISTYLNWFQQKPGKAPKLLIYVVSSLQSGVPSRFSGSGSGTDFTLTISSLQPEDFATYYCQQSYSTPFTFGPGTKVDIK

Marked response:
[8.87, 9.59, 10.52]
